test_system: FPRL1 (Homo sapiens, UniProt P25090)
Sequence (P25090 1-351): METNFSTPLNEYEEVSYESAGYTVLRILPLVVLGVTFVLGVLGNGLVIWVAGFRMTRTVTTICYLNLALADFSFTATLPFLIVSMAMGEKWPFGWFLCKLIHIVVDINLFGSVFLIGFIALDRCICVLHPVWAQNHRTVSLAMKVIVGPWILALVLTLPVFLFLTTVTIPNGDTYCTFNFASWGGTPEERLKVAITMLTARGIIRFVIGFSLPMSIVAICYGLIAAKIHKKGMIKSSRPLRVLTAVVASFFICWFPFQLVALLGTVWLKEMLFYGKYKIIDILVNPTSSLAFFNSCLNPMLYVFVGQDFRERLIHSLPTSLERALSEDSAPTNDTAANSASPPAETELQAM
assay: FPRL1 activity of SHAAGtide and truncated and other variants
protocol_conditions: in words: high, moderate, low
No end group written: not given here.
value_type: FPRL1 Activity

MLWRRKIGPQMT [CCXP5] : Moderate
LWRRKIGPQMTLSH [CCXP11] : Moderate
IGPQMTLSHAAG [CCXP4] : Low
WRRKIGPQMTLSHAAG [CCXP7] : Low activity
MLWRRKIGPQMTLSH [CCXP3] : High

**Q:** Any idea what FPRL1 Activity was measured for MLWRRKIGPQMTLSHAAY [CCXP6] ?
**A:** high

**Q:** What do we get for WRRKIGPQM [CCXP9] ?
**A:** Low activity

**Q:** Cool, now RRKIGPQMTLSHAAG [CCXP2]
**A:** Low

**Q:** Then WRRKIG [CCXP10] ?
**A:** Low activity

**Q:** MLWRRKIGPQM [CCXP8] ?
**A:** Moderate
